Each entry below lists one item and its recorded inhibition value.
- measured-target: Glucose transporter (Leishmania mexicana) (UniProt O61059)
- experiment-summary: ST_JUDE_LEISH: Cytotoxicity at 2uM final concentration against transgenic Leishmania Mexicana promastigotes LmGT2 that are glucose transport deficient and complemented with the L. Mexicana glucose transporter 2. Activity is measured by DNA content using SYBR green in vitro
- Format: functional

| compound | measured-target | scale-unit | inhibition |
| --- | --- | --- | --- |
| N#Cc1ccc(-c2ccc(C(=O)NCCCCN3CCC(c4ccc5c(c4OCC(N)=O)CCCC5)CC3)nc2)cc1 | Glucose transporter (Leishmania mexicana) (UniProt O61059) | % | 2.97 |
| Cc1ccc2[nH]c(/C=C/c3cccc4cc[nH]c34)nc2c1 | Glucose transporter (Leishmania mexicana) (UniProt O61059) | % | 0.48 |
| COc1ccc(-n2ccnc2)cc1CNC1CCN(CC2Cn3c(=O)ccc4ccc(F)c2c43)CC1 (centres undefined) | Glucose transporter (Leishmania mexicana) (UniProt O61059) | % | 5.24 |
| Fc1cc(Cl)ccc1Nc1ccnc2cc(-c3ccc(CN4CCNCC4)o3)ccc12 | Glucose transporter (Leishmania mexicana) (UniProt O61059) | % | 1.34 |
| Cc1[nH]c(C)c(C(F)(F)F)c(=O)c1-c1ccc(Oc2ccc(OC(F)(F)F)cc2)cc1 | Glucose transporter (Leishmania mexicana) (UniProt O61059) | % | 0.52 |
| Nc1nccc2ccc(-c3cccnc3)cc12 | Glucose transporter (Leishmania mexicana) (UniProt O61059) | % | 4.83 |
| CC(C)(C)c1ccc(CNC(=O)COc2ccc(-c3nnc(-c4cccc([N+](=O)[O-])c4)o3)cc2[N+](=O)[O-])cc1 | Glucose transporter (Leishmania mexicana) (UniProt O61059) | % | -0.93 |
| COc1cc(CN2CCC(NC(=O)[C@H](Cc3ccccc3)NC(=O)Nc3ccc(Oc4ccccc4)cc3)C2)ccc1O (some centres undefined) | Glucose transporter (Leishmania mexicana) (UniProt O61059) | % | -3.37 |
| O=S(=O)(NCCCN1CCOCC1)c1ccc2nccc(Nc3ccc(Oc4ccccc4)cc3)c2c1 | Glucose transporter (Leishmania mexicana) (UniProt O61059) | % | -0.94 |
| COc1ccc(NC(=O)[C@H](Cc2ccccc2)Nc2nc(NCCN3CCCC3)ncc2C)cc1 | Glucose transporter (Leishmania mexicana) (UniProt O61059) | % | 3.02 |
| COc1ccc(C2(CNCC(O)c3cccc([N+](=O)[O-])c3)CCCCC2)cc1OC (centres undefined) | Glucose transporter (Leishmania mexicana) (UniProt O61059) | % | 0.33 |
| Nc1nc(N)c2c(ccc3c2ccn3Cc2ccc(OCc3ccccc3)cc2)n1 | Glucose transporter (Leishmania mexicana) (UniProt O61059) | % | -0.6 |
| Cc1ccc(NC(=O)Nc2cccc(Cl)c2)cc1-c1ccc(C(=O)Nc2ccncc2)cc1 | Glucose transporter (Leishmania mexicana) (UniProt O61059) | % | -1.5 |
| O=C(C=Cc1ccc(Br)cc1)N1CCC(CCN2CCC(c3c[nH]c4ccccc34)CC2)CC1 | Glucose transporter (Leishmania mexicana) (UniProt O61059) | % | 4.25 |
| CC(CN1CCN(C)CC1)C(=O)Nc1ccc(-c2cccc(-c3nc4cc(C(F)(F)F)ccc4[nH]3)c2)cc1 (centres undefined) | Glucose transporter (Leishmania mexicana) (UniProt O61059) | % | -2.84 |
| CCOC(=O)C(CO)NC(=O)c1ccc([N+](=O)[O-])o1 (centres undefined) | Glucose transporter (Leishmania mexicana) (UniProt O61059) | % | 5.24 |
| O=c1cc(N2CCNCC2)c(Cl)nn1Cc1ccc(NS(=O)(=O)c2ccc(Oc3ccccc3)cc2)cc1 | Glucose transporter (Leishmania mexicana) (UniProt O61059) | % | 1.23 |
| Cc1cc(NCCCOc2ccc(Cl)cc2)nc(NCc2ccccc2)n1 | Glucose transporter (Leishmania mexicana) (UniProt O61059) | % | 7.19 |
| O=C(c1ccc2ccccc2n1)N1CCCc2cc(Br)ccc21 | Glucose transporter (Leishmania mexicana) (UniProt O61059) | % | 0.16 |
